# Test Target: human MC4R (Homo sapiens)
# Construct: host or cells: HEK-293 cells stably expressing the GScAMP22F split-luciferase cAMP sensor and hMC4R, G418 selection
# Sequence (P32245 whole entry): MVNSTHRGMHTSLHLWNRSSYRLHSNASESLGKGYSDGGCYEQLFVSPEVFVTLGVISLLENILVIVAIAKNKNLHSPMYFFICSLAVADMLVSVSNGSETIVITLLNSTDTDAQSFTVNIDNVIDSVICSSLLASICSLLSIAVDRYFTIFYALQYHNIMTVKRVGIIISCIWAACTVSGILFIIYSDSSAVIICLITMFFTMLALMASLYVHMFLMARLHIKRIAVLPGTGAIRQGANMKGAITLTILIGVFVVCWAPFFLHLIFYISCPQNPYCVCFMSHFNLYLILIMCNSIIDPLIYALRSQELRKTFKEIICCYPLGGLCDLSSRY
# Procedure Summary: split-luciferase cAMP sensor assay, agonist mode (measurement window 1), hMC4R
# Type: cell-based
# Condition Set: agonist mode, hMC4R stable cell line; read-out: MC4R cAMP EC50
Positions of bridges follow the written chain, without caps; N, C: chain ends. Non-standard residues stand in square brackets, D forms with d. Residues, ends and D or L forms follow the SMILES beside them. dPhe(4-Br) = N[C@H](Cc1ccc(Br)cc1)C(=O)O; dPhe(4-F) = N[C@H](Cc1ccc(F)cc1)C(=O)O; Nle = CCCC[C@H](N)C(=O)O; dAbu = CC[C@@H](N)C(=O)O
Property Measured: EC50 (nM)
Give your result in nM as a bare value.

Take a look at these entries with their results.
1) CC(=O)N[C@@H](CCCNC(=N)N)C(=O)N[C@H]1CSSC[C@@H](C(N)=O)NC(=O)[C@@H](Cc2c[nH]c3ccccc23)NC(=O)[C@H](CCCNC(=N)N)NC(=O)[C@@H](Cc2ccc(F)cc2)NC(=O)[C@H](CCCNC(=N)N)NC(=O)[C@@H](C)NC1=O [CTX-1236] (Ac-RC[dA]R[dPhe(4-F)]R[dW]C-NH2; disulfide 2-8)
1.9
2) CC[C@H]1NC(=O)[C@@H](NC(=O)[C@H](CCCNC(=N)N)NC(C)=O)CSSC[C@@H](C(N)=O)NC(=O)[C@@H](Cc2c[nH]c3ccccc23)NC(=O)[C@H](CCCNC(=N)N)NC(=O)[C@@H](Cc2ccc(Br)cc2)NC(=O)[C@H](CCCNC(=N)N)NC1=O [CTX-1247] (Ac-RC[dAbu]R[dPhe(4-Br)]R[dW]C-NH2; disulfide 2-8 (inferred))
3.3

# next compound below
Prompt line: GET EC50 | system: human MC4R (Homo sapiens) | item: CCCC[C@H](NC(=O)[C@H](CCCNC(=N)N)NC(C)=O)C(=O)N[C@H]1CSSC[C@@H](C(N)=O)NC(=O)[C@@H](Cc2c[nH]c3ccccc23)NC(=O)[C@H](CCCNC(=N)N)NC(=O)[C@@H](Cc2ccc(OC)cc2)NC(=O)[C@H](CCCNC(=N)N)NC1=O [CTX-1615] (Ac-R[Nle]CR[dY](Me)R[dW]C-NH2; disulfide 3-8)
Response line: 13

Numbers sourced from patent US20240391954A1.
